# System: Micrococcus Luteus
# experiment.description: Disc diffusion antimicrobial susceptibility test, Micrococcus luteus
# Type: cell-based
# measurement.parameters: Micrococcus luteus, 24 h; solution transferred to disc 50 mg cm^−3; read-out: Inhibition diameter
readout.label: zone of inhibition at 50000 µg/mL (mm)
Please reply with the bare figure in mm and do not write the unit itself.

Which zone of inhibition at 50000 µg/mL value is on record for CC(C)OC(=O)[C@@H](N)[C@@H](C)O.O=C(O)c1ccccc1O [[L-ThrOiPr][SA], L-threonine isopropyl ester salicylate] ?
6.6

Which zone of inhibition at 50000 µg/mL value is on record for COc1ccc2cc([C@H](C)C(=O)O)ccc2c1 [NAP, S-(+)-naproxen, reference compound] ?
6.4

Which zone of inhibition at 50000 µg/mL value is on record for CC(C(=O)O)c1cccc(C(=O)c2ccccc2)c1 (racemic) [KETO, (R,S)-ketoprofen, reference compound] ?
9.6

Which zone of inhibition at 50000 µg/mL value is on record for CC(C)Cc1ccc(C(C)C(=O)O)cc1 (racemic) [IBU, (R,S)-ibuprofen, reference compound] ?
9.4
